biological target: Scavenger receptor class B member 1 (Mus musculus); experiment: SR-BI HDL particle binding change, fluorescent HDL – cell-based, ldlA[mSR-BI] CHO, Alexa 488-HDL, powder samples, set 3, orthogonal assay for SR-BI HDL uptake inhibitor project, dose response (AID 624024); settings: ldlA[mSR-BI] CHO cells, Alexa488-HDL binding fluorescence, 3 h
Inconclusive results are not listed.
QUANTITY_NAME: AC40

COMPOUND: Cc1noc(C)c1S(=O)(=O)Nc1ccc2c(c1)C(=O)N([C@H](C)CO)C[C@@H](C)[C@H](CN(C)S(=O)(=O)c1ccc(Cl)cc1)O2
RESULT: 138 nM
--
COMPOUND: COCC(=O)N1CCc2cc(-c3csc(NC(=O)c4cc(OC)cc(OC)c4)n3)ccc21
RESULT: 19.9 nM
--
COMPOUND: C[C@@H]1CN([C@H](C)CO)C(=O)c2cc(NC(=O)C3CCCCC3)ccc2O[C@H]1CN(C)C(=O)c1ccc(Cl)cc1
RESULT: 17500 nM
--
COMPOUND: CC(C)CN(C(=O)COC(=O)C12CC3CC(CC(O)(C3)C1)C2)C1CCS(=O)(=O)C1 (stereo unspecified)
RESULT: 772 nM
--
COMPOUND: C[C@@H]1CN([C@H](C)CO)C(=O)c2cc(NC(=O)C3CCCCC3)ccc2O[C@H]1CN(C)S(=O)(=O)c1ccc(Cl)cc1
RESULT: 33.2 nM
--
COMPOUND: CC(C)NC(=O)Nc1ccc2c(c1)C(=O)N([C@@H](C)CO)C[C@@H](C)[C@H](CN(C)S(=O)(=O)c1ccc(Cl)cc1)O2
RESULT: 20.3 nM
--
COMPOUND: C[C@@H]1CN([C@H](C)CO)C(=O)c2cc(NC(=O)Nc3ccc(F)cc3)ccc2O[C@H]1CN(C)S(=O)(=O)c1ccc(Cl)cc1
RESULT: 33.2 nM
--
COMPOUND: C[C@@H]1CN([C@H](C)CO)C(=O)c2cc(NC(=O)C3CCCCC3)ccc2O[C@H]1CN(C)S(=O)(=O)c1ccccc1Cl
RESULT: 222 nM
--
COMPOUND: C[C@@H]1CN([C@H](C)CO)C(=O)c2cc(NC(=O)C3CCOCC3)ccc2O[C@H]1CN(C)S(=O)(=O)c1ccc(Cl)cc1
RESULT: 1970 nM
--
COMPOUND: CCOc1cc2c3c(c1)C1(C(=O)N3C(C)(C)CC2C)C(C#N)=C(N)N2C(=C1C#N)Nc1ccccc12 (stereo unspecified)
RESULT: 3670 nM
--
COMPOUND: CCCCCCC1CCC/C1=N\NC(N)=S (stereo unspecified)
RESULT: 2.72 nM
--
COMPOUND: CC(=O)Nc1ccc(Cl)c(C(=O)Nc2ccc(N3CCN(C(=O)OC(C)(C)C)CC3)cc2)c1
RESULT: 16.6 nM
--
COMPOUND: CC(C)NC(=O)Nc1ccc2c(c1)C(=O)N([C@@H](C)CO)C[C@@H](C)[C@@H](CN(C)S(=O)(=O)c1ccc(Cl)cc1)O2
RESULT: 57.6 nM
--
COMPOUND: C[C@H](C(=O)NC1CCCC1)N(C(=O)Cn1nnc(-c2ccc3c(c2)OCO3)n1)C1CCCCC1
RESULT: 16.7 nM
--
COMPOUND: CC(C)NC(=O)Nc1ccc2c(c1)C(=O)N([C@@H](C)CO)C[C@H](C)[C@@H](CN(C)S(=O)(=O)c1ccc(Cl)cc1)O2
RESULT: 671 nM
--
COMPOUND: CC(C)(C)OC(=O)N1CCN(c2ccc(NC(=O)c3cc([N+](=O)[O-])ccc3Cl)cc2)CC1
RESULT: 155 nM
